Assay: Food effect and relative bioavailability crossover study, Compound (1) vs sodium oxybate
Conditions: human, plasma, po, 7.25 g, Compound (1) plasma T1/2, Median, 7.25 g Compound (1) oral, Fed
readout.type: half-life (min)
Numeric answer only, unit min assumed.

Prompt: What half-life value was documented for this molecule, CC(C)[C@H](N)C(=O)OCCCC(=O)O [Compound (1), 4-((L-valyl)oxy)butanoic acid] ?
Completion: 35.4

---

Assay: Single ascending dose study, plasma pharmacokinetics of Compound (1) and GHB
Type: in vivo, human
Conditions: human, plasma, po, 0.5 g, Cohort 2 (0.50 g) single oral dose, fasted; read-out: Compound (1) plasma AUC0-tlast, Median
readout.type: AUC(0-t) (ng·h/mL)
Value expressed in ng·h/mL; do not type the unit.

Prompt: Fill blank: measured AUC(0-t) of the compound CC(C)[C@H](N)C(=O)OCCCC(=O)O is ____.
Completion: 1280
